Quick reference for % Activation among some compounds
# tested-system: ΔF508-CFTR (Homo sapiens, UniProt P13569, DEL508-508)
# Construct: host or cells: CFBE41o-, doxycycline-inducible
# Sequence (P13569 with tags, fused parts or gaps DEL508-508): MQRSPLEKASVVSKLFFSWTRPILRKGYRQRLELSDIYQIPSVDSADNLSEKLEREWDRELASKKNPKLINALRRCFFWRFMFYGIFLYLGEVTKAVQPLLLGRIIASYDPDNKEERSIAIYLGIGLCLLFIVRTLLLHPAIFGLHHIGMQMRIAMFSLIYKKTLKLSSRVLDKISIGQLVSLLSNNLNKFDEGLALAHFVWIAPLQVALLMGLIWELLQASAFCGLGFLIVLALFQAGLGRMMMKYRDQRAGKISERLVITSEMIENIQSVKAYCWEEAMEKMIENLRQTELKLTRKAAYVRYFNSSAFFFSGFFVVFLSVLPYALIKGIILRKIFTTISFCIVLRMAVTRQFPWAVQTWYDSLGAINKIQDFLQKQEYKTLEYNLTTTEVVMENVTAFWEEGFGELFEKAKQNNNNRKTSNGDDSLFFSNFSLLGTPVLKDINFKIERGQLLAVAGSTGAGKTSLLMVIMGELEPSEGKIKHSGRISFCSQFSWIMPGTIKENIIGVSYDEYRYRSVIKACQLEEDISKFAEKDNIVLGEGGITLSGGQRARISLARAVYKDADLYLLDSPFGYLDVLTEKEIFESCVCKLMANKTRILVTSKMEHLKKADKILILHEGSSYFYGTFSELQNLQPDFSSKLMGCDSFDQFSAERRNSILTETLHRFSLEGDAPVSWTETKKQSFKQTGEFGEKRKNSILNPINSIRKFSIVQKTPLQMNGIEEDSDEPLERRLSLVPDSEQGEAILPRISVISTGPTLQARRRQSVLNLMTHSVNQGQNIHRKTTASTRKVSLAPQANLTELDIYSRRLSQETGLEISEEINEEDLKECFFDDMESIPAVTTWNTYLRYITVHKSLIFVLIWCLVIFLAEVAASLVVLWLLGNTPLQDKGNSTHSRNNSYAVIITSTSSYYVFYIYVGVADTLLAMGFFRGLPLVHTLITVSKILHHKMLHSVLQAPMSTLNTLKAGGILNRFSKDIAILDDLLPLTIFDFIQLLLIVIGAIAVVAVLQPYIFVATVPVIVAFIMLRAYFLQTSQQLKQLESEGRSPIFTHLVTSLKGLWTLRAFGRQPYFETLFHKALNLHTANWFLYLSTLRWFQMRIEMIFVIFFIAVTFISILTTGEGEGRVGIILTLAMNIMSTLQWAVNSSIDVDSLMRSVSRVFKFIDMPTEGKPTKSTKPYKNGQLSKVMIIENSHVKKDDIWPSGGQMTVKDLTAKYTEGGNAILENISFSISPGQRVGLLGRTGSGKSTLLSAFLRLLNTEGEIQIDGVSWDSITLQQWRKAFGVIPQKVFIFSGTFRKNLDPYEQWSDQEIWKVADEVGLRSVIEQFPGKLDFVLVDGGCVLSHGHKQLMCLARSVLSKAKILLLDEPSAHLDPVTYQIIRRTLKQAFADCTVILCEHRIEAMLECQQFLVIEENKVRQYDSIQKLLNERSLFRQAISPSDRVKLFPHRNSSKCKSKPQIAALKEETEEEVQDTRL
# measurement-notes: CFTR cell surface levels using HRP-tagged ΔF508-CFTR expressing CFBE cells, intrinsic corrector capacity
# Assay type: cell-based
# Parameters: concentration or dose not given beside the values
# experimental-setup: HRP-tagged ΔF508-CFTR expressing CFBE41o- cells; compound alone (intrinsic corrector capacity); 20 hours at 33° C.

compound	% Activation / %
Cc1nn(-c2cccc(C(F)(F)F)c2)c2nc(C(=O)NS(C)(=O)=O)cc(-c3ccc(N(C)C)cc3)c12 [Compound 26]	202.25
CCS(=O)(=O)NC(=O)c1cc(-c2cnc(N(C)C)nc2)c2c(C)nn(C3CCCCC3)c2n1 [Compound 50]	109.8
CC(=O)N1CCCN(S(=O)(=O)NC(=O)c2cc(OCC3CCOCC3)c3c(C4CCC4)nn(-c4ccccc4)c3n2)CC1 [Compound 357]	72.83
COCC1CCN(c2cc(C(=O)NS(C)(=O)=O)nc3c2c(C(C)C)nn3CC(C)C)CC1 [Compound 264]	242.5
CC(C)c1nn(-c2cccc(N(C)C)c2)c2nc(C(=O)NS(C)(=O)=O)cc(-c3cnc(N(C)C4CCOCC4)nc3)c12 [Compound 91]	388.15
